assay: qHTS of pediatric cancer cell lines to identify multiple opportunities for drug repurposing: Primary screen for BT-37 cells (AID 1347094); conditions: BT-37 viability, CellTiter-Glo luminescence, 48 h; series mostly up to 57.3 µM
Records with an inconclusive call do not appear. The source made the active and inactive calls. Calls follow the shape of the dose curve; as a rule, active = well fitted cell-killing curve with a large enough effect; inconclusive = small, poorly fitted or top-dose-only effect; inactive = flat fitted curve, though single readings scatter.
Possible outcomes: 1 (yes) for active, 0 (no) for inactive

{"columns": ["compound", "assigned class"],
 "data": [
  ["COC(=O)[C@@H](N)CCCN/C(N)=N/[N+](=O)[O-]", "0 (no)"],
  ["C[C@]12CC[C@H]3[C@@H](CC[C@@]45O[C@H]4C(O)=C(C#N)C[C@]35C)[C@H]1CC[C@H]2O", "0 (no)"],
  ["COc1cccc2c1C(=O)c1c(O)c3c(c(O)c1C2=O)C[C@@](O)(C(=O)CO)CC3OC1CC(N2CCOC(OC)C2)C(O)C(C)O1 (stereo partly specified)", "1 (yes)"],
  ["COC(=O)C(Cl)C(=O)OC", "0 (no)"],
  ["c1ccc(CN2CCNCC2)cc1", "0 (no)"],
  ["CCN[C@@H](C)Cc1cccc(C(F)(F)F)c1", "0 (no)"],
  ["CC(C)=CC1C(C(=O)OCN2C(=O)C3=C(CCCC3)C2=O)C1(C)C (stereo unspecified)", "0 (no)"],
  ["COc1cccc(C(=O)CCN[C@@H](C)[C@H](O)c2ccccc2)c1", "0 (no)"],
  ["CN1CC[C@]23c4c5ccc(O)c4O[C@H]2[C@@H](O)C=C[C@H]3[C@H]1C5", "0 (no)"],
  ["CNC(C)(C)Cc1ccccc1", "0 (no)"],
  ["CCC1(c2ccccc2)C(=O)N(COC)C(=O)N(COC)C1=O", "0 (no)"]
]}
